What kcat was measured for each of the following?
Substrate: tributyrin
Conditions: pH 7; 25 °C
One number for each entry, in s⁻¹.

Below are some proteins; for each one, tell me its kcat.
1. unnamed (protein) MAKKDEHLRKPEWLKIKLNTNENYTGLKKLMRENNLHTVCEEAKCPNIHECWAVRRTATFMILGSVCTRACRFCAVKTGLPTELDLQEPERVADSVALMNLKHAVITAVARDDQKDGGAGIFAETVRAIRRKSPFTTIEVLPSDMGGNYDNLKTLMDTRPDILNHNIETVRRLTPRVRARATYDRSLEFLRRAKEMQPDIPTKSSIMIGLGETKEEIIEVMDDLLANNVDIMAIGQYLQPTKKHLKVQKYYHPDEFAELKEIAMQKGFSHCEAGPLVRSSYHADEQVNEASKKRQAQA
2. unnamed (protein) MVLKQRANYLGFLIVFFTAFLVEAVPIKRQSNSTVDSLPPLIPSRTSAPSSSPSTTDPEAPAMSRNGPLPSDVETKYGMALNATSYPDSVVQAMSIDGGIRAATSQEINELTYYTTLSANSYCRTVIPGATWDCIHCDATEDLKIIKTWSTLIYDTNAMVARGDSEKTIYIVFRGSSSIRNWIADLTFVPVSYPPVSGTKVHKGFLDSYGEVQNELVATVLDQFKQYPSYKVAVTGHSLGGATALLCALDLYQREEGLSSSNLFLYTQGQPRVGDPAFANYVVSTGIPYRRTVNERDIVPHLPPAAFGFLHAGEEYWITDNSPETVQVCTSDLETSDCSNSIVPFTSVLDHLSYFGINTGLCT
3. unnamed (protein) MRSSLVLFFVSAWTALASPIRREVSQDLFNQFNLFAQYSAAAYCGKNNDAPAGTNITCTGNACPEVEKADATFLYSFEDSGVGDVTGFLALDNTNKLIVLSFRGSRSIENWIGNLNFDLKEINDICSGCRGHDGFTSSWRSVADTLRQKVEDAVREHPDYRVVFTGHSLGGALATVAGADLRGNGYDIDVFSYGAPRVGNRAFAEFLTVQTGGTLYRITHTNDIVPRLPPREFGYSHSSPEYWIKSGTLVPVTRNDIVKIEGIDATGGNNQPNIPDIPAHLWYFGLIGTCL

1: 100; 2: 1080; 3: 2250

All figures here come from the PETadex activity labels (doi:10.1016/j.bbalip.2005.11.003).
